# Measurement Target: α-glucosidase
# Construct: gene MAL12; enzyme preparation
# Assay Name: p-NPG hydrolysis, absorbance […] nm
# Type: biochemical
# Condition Notes: p-NPG (50 μL of 3 mM), potassium phosphate pH 7.4, 37 °C, 1 h
Measured IC50 by item
Unit mg/mL implied. Number only.

O=c1cc(-c2ccc(O)cc2)oc2cc(O)cc(O)c12 [Apigenin]    0.2508
COc1cc(-c2oc3cc(O)cc(O)c3c(=O)c2O)ccc1O [Isorhamnetin]    0.1588

As a next step, examine the molecule that follows.
Entry O=c1cc(-c2ccc(O)c(O)c2)oc2cc(O)cc(O)c12 [Luteolin] — recorded IC50 = 0.1904
